Collected literature values of pKi measured for Carbonic anhydrase 2 (Homo sapiens).
pKi: −log10 of the molar value.
observationType: pKi

{"columns": ["recordSmiles", "valueObserved"],
 "data": [
  ["CCCN(CCC)S(=O)(=O)c1ccc(C(=O)Nc2ccncc2)cc1", "< 5.00"],
  ["O=Cc1cc([N+](=O)[O-])ccc1OCc1cn(CCCOc2ccc3ccc(=O)oc3c2)nn1", "< 5.00"],
  ["C=CCOc1ccc2ccc(=S)oc2c1", "< 3.70"],
  ["O=C(NO)[C@H]1C[C@@H](n2cc(-c3ccccc3)nn2)CN1S(=O)(=O)c1ccc(Cl)c(Cl)c1", "< 4.00"],
  ["Cc1nn(-c2ccccc2)c2c1c(=O)oc1ccc(NC(=O)c3ccccc3)cc12", "< 5.00"],
  ["COC(=O)C1=Cc2cc(C(=O)OC)ccc2OC(=O)C1", "< 4.00"],
  ["O=[N+]([O-])c1ccccc1CNS(=O)(=O)c1ccccc1CO", "< 4.30"]
]}

---

pKi: −log10 of the molar value.
Below are pKi measurements against Carbonic anhydrase 2 (Homo sapiens) drawn from the literature.
observationType: pKi

{"columns": ["compound", "observationType", "valueObserved"],
 "data": [
  ["O=C(Nc1ccc(C(=O)Nc2ccc(S(=O)(=O)N3CCC[C@@H]3C(=O)NO)cc2)cc1)OCc1ccccc1", "pKi", "< 4.00"],
  ["C[C@H](CCC(=O)Nc1ccccc1S(N)(=O)=O)[C@H]1CC[C@H]2[C@@H]3[C@H](O)C[C@@H]4C[C@H](O)CC[C@]4(C)[C@H]3C[C@H](O)[C@]12C", "pKi", 6.56],
  ["NS(=O)(=O)c1ccc(N/C(S)=N\\c2ccccc2C(=O)O)cc1", "pKi", 7.89],
  ["COc1ccc(S(=O)(=O)N(Cc2ccccc2)C(CC(C)C)C(=O)NO)cc1 (stereo not given)", "pKi", "< 6.70"],
  ["CC(C)CC(=O)OC[C@H]1O[C@@H](n2cc(-c3ccc(S(N)(=O)=O)cc3)nn2)[C@H](OC(=O)CC(C)C)[C@@H](OC(=O)CC(C)C)[C@@H]1OC(=O)CC(C)C", "pKi", 6.36],
  ["COC(=O)c1cccc(-c2ccc3c(c2)C=CS(=O)(=O)O3)c1", "pKi", "< 5.00"],
  ["O=S1(=O)C=Cc2cc(-c3cccc(F)c3)ccc2O1", "pKi", "< 5.00"],
  ["O=S(=O)(NCCc1ccccc1)NCCc1ccccc1", "pKi", "< 3.70"],
  ["Cc1nn(-c2ccccc2)c2c1c(=O)oc1ccccc12", "pKi", "< 5.00"],
  ["Cc1c(CC(=O)O)c(=O)oc2cc3occ(-c4ccc(Cl)cc4)c3cc12", "pKi", "< 5.00"]
]}

---

Hi, quick share: literature pKi data for Carbonic anhydrase 2 (Homo sapiens, UniProt P00918), several sources combined.
pKi: −log10 of the molar value.
observationType: pKi

{"columns": ["recordSmiles", "valueObserved"],
 "data": [
  ["CCCCN(CCCC)C(=O)S", "< 5.70"],
  ["O=Cc1c(OCc2cn(CCCOc3ccc4ccc(=O)oc4c3)nn2)ccc2ccccc12", "< 5.00"],
  ["COc1cc2oc(=O)ccc2cc1O", "< 4.00"],
  ["Cn1cc(S(N)(=O)=O)c2cc(NC(=O)c3ccnc(Br)c3)ccc21", "< 4.00"],
  ["Cc1nn(Cc2ccccc2)c2c1c(=O)oc1ccccc12", "< 5.00"],
  ["Cc1c(CC(=O)O)c(=O)oc2cc3occ(-c4ccc(F)cc4)c3cc12", "< 5.00"]
]}
